Cited source for all entries: ChEMBL document CHEMBL1781914

System: Hepatitis C virus
Test Protocol: Inhibition of HCV genotype 1b NS5B polymerase expressed in Escherichia coli BL21(DE3) after 60 mins by FRET assay
Set-up: species or system Hepatitis C virus subtype 1b
Applied Conditions: BL21-DE3, 1 h
Measured pIC50 by item
The meaning of pIC50 here: minus log10 of the concentration in molar units.

Use these answered entries as a reference point.
> print(dat)
                              smiles.string  readout.value
1  O=C(O)/C=C/c1ccc(OC(=O)C2(NC(=O)c3ccc4c(C5CCCCC5)c5n(c4c3)CCOc3ccccc3-5)CCCC2)cc1           7.52
2  O=C(O)c1ccc2c(C3CCCCC3)c3n(c2c1)CCCCNc1ccccc1-3           6.22
3  O=C(O)c1ccc2c(C3CCCCC3)c3n(c2c1)CCCc1ccccc1-3           6.08

// next item, pIC50 requested
Query block: Tell me measured pIC50 for `O=C(O)/C=C/c1ccc(OC(=O)C2(NC(=O)c3ccc4c(C5CCCCC5)c5n(c4c3)CCCCNc3ccccc3-5)CCCC2)cc1` please.
Result block: 7.05
